- Tested on: Human papillomavirus type 1a protein E7 (residues 44-93)
- protocol-text: HPV1a E7 fragment binders on microarrays, primary screen, biochemical, small-molecule microarray, residues 44-93, 635 nm fluorescence (AID 1108);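 also: E7 fragment applied at 1 µg/mL in TBST for 1 h at 4 C; score combines spot fluorescence with its signal to noise ratio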
- settings: small-molecule microarray binding, fluorescence 635 nm; higher = more signal
Measured composite z-score, listed per entry for reference.
Kindly provide the number alone.

Below: 5 compounds and their reported composite z-score.
[N-]=[N+]=NCc1ccccc1[C@@H]1OC(c2ccc(OCCCO)cc2)=N[C@]1(Cc1ccccc1N=[N+]=[N-])C(=O)NCc1ccccc1 = 1.33
CCOc1cc(C(O)C2C=CC3C(=O)N(c4ccccc4)C(=O)C3N2Nc2ccc([N+](=O)[O-])cc2)ccc1O (stereo unspecified) = 0.532
O=C1N(CCS(=O)(=O)c2ccccc2)Cc2ccccc2[C@H]2OC(c3ccc(OCCCO)cc3)=N[C@@]12CCS(=O)(=O)c1ccccc1 = 0.961
COc1ccc(C#Cc2ccc3c(c2)[C@]2(C(=O)N3)[C@H](C(=O)NC[C@H](O)c3ccccc3)[C@H]3C(=O)O[C@H](c4ccccc4)[C@H](c4ccccc4)N3[C@@H]2c2ccc(OCCO)cc2)cc1 = 1.43
COCCOC(=O)N1C(=O)[C@@]2(c3cc(C#CCCO)ccc31)[C@H](c1ccccc1OCCO)N1[C@H](c3ccccc3)[C@H](c3ccccc3)OC(=O)[C@H]1[C@@H]2C(=O)N1CCN(c2ncccn2)CC1 = 1.43

--- query ---
Quick note, composite z-score for O=C1C[C@@](C(=O)NC2CC2)(c2ccc([N+](=O)[O-])cc2)[C@@H](c2ccc(CO)cc2)N1CC12CC3CC(CC(C3)C1)C2 landed at 0.869
